system: VEGF; assay: Evaluation of VEGF protein secretion level (Human VEGF ELISA) in ARPE-19 cell medium under hypoxic conditions; format: cell-based; conditions: ARPE-19 cells; pretreated 2 hours, 24 hours hypoxic conditions; secreted VEGF in medium supernatant by ELISA; concentration range reducing VEGF by 50% vs untreated control; read-out: IC50 VEGF
experimental-endpoint: IC50

[Q] Hi! What's the reported IC50 for O=C(NCc1cc(F)cc(-c2cnn(-c3ccc(F)cc3)c2)c1)c1ncnc2nc(C3CC(F)(F)C3)[nH]c12 [Example 92] on VEGF?
[A] 100 to 1000 nM

[Q] Hi! What's the reported IC50 for O=C(NCc1cc(F)cc(-c2cnn(-c3ccc(F)cc3)c2)c1)c1ncnc2nc(C3CC4CCC3C4)[nH]c12 (stereo not drawn) [Example 114] on VEGF?
[A] 100 to 1000 nM

[Q] Hi! What's the reported IC50 for NC(=O)c1ccc(Nc2cc(F)cc(CNC(=O)c3ncnc4nc(C5CCCC5)[nH]c34)c2)cc1 [Example 126] on VEGF?
[A] < 100 nM

[Q] Hi! What's the reported IC50 for O=C(NCc1cc(F)cc(-c2cnn(-c3ccc(Cl)cc3)c2)c1)c1ncnc2nc(C3CCCC3)[nH]c12 [Example 58] on VEGF?
[A] 100 to 1000 nM

[Q] Hi! What's the reported IC50 for O=C(O)c1ccc(-n2cc(-c3cc(F)cc(CNC(=O)c4ncnc5nc(C6CCCC6)[nH]c45)c3)cn2)cc1 [Example 54] on VEGF?
[A] 100 to 1000 nM

[Q] Hi! What's the reported IC50 for O=C(NCc1cccc(-c2cnn(-c3ccc(F)cc3)c2)c1)c1ncnc2nc(C3CCCC3)[nH]c12 [Example 57] on VEGF?
[A] 100 to 1000 nM

[Q] Hi! What's the reported IC50 for Cn1cc(-c2cc(F)cc(CNC(=O)c3ncnc4nc(C5CC6CC6C5)[nH]c34)c2)cn1 (stereo not drawn) [Example 78] on VEGF?
[A] 100 to 1000 nM

[Q] Hi! What's the reported IC50 for O=C(NCc1cc(F)cc(-c2cnn(Cc3ccccc3)c2)c1)c1ncnc2nc(C3CCCC3)[nH]c12 [Example 9] on VEGF?
[A] 100 to 1000 nM

[Q] Hi! What's the reported IC50 for O=C(NCc1cc(F)cc(-c2cnn(-c3ccc(F)cc3)c2)c1)c1ncnc2nc(C34CC(C3)C4)[nH]c12 [Example 99] on VEGF?
[A] > 10000 nM

[Q] Hi! What's the reported IC50 for COc1ccccc1Nc1cc(F)cc(CNC(=O)c2ncnc3nc(C4CCCC4)[nH]c23)c1 [Example 33] on VEGF?
[A] 100 to 1000 nM

[Q] Hi! What's the reported IC50 for O=C(NCc1cc(F)cc(-c2cnn(-c3cscn3)c2)c1)c1ncnc2nc(C3CCCC3)[nH]c12 [Example 141] on VEGF?
[A] < 100 nM

[Q] Hi! What's the reported IC50 for O=C(NCc1cc(F)cc(Nc2ccncc2)c1)c1ncnc2nc(C3CCCC3)[nH]c12 [Example 16] on VEGF?
[A] 100 to 1000 nM

[Q] Hi! What's the reported IC50 for O=C(NCc1cc(F)cc(-c2cnn(-c3cccnc3)c2)c1)c1ncnc2nc(C3CCC(F)(F)C3)[nH]c12 (stereo not drawn) [Example 83] on VEGF?
[A] < 100 nM

[Q] Hi! What's the reported IC50 for COC(=O)C1CC(c2nc3ncnc(C(=O)NCc4cc(F)cc(-c5cnn(-c6ccc(F)cc6)c5)c4)c3[nH]2)C1 (single isomer, unassigned) [103(B)] on VEGF?
[A] > 10000 nM

[Q] Hi! What's the reported IC50 for NC(=O)c1ccc(-n2cc(-c3cc(F)cc(CNC(=O)c4ncnc5nc(C6CCCC6)[nH]c45)c3)cn2)cc1 [Example 53] on VEGF?
[A] 100 to 1000 nM
